tested on: UT-SCC-24A; experiment: drug sensitivity score (DSS), cell viability CellTiter-Glo; higher = more sensitive; extreme values may be limits of the assay; details: 72 h; shRNA: shPPFIA1_2
Decide using drug sensitivity score: a value greater than or equal to 6 DSS is yes, a smaller one is no.

>  <structure>
CN(C)C/C=C/C(=O)Nc1cc2c(Nc3ccc(F)c(Cl)c3)ncnc2cc1O[C@H]1CCOC1

>  <assigned_category>
yes

$$$$
>  <structure>
COc1cc(C(=O)NC2CCN(C)CC2)c(F)cc1Nc1ncc2c(n1)N(C1CCCC1)CC(F)(F)C(=O)N2C

>  <assigned_category>
no

$$$$
>  <structure>
COc1ccc(-c2ccc3ncc4c(c3c2)n(-c2ccc(N3CCNCC3)c(C(F)(F)F)c2)c(=O)n4C)cn1

>  <assigned_category>
yes

$$$$
>  <structure>
CO[C@H]1C[C@@H]2CC[C@@H](C)[C@@](O)(O2)C(=O)C(=O)N2CCCC[C@H]2C(=O)O[C@H]([C@H](C)C[C@@H]2CC[C@@H](OCCO)[C@H](OC)C2)CC(=O)[C@H](C)/C=C(\C)[C@@H](O)[C@@H](OC)C(=O)[C@H](C)C[C@H](C)/C=C/C=C/C=C/1C

>  <assigned_category>
no

$$$$
>  <structure>
Cn1c(=O)n(-c2ccc(C(C)(C)C#N)cc2)c2c3cc(-c4cnc5ccccc5c4)ccc3ncc21

>  <assigned_category>
yes

$$$$

In plain terms: is recorded drug sensitivity score at least 6 DSS for CC(=O)O[C@@]12CO[C@@H]1C[C@H](O)[C@@]1(C)C(=O)[C@H](O)C3=C(C)[C@@H](OC(=O)[C@H](O)[C@@H](NC(=O)OC(C)(C)C)c4ccccc4)C[C@@](O)([C@@H](OC(=O)c4ccccc4)[C@H]21)C3(C)C ?
yes

In plain terms: is recorded drug sensitivity score at least 6 DSS for CN[C@@H](C)C(=O)N[C@H](C(=O)N1CCC[C@H]1c1nc(C(=O)c2ccc(F)cc2)cs1)C1CCCCC1 ?
no

====

Readings of drug sensitivity score for the listed compounds
tested on: BT-474; test: drug sensitivity score (DSS), cell viability CellTiter-Glo; higher = more sensitive; extreme values may be limits of the assay; settings: 72 h; shRNA: shScramble
The figure you give is taken to be in DSS; do not add the unit.

A selection of reference data follows.
>  <compound>
CC(=O)Nc1cccc(-n2c(=O)n(C3CC3)c(=O)c3c(Nc4ccc(I)cc4F)n(C)c(=O)c(C)c32)c1 [Trametinib]

>  <assayed_system>
BT-474

>  <value_measured>
0.1

$$$$
>  <compound>
CN[C@@H](C)C(=O)N[C@H](C(=O)N1CCC[C@H]1c1nc(C(=O)c2ccc(F)cc2)cs1)C1CCCCC1 [NVP-LCL161]

>  <assayed_system>
BT-474

>  <value_measured>
0.7

$$$$
>  <compound>
Cc1cc(C(=O)NOCCO)c(Nc2ccc(I)cc2F)n(C)c1=O [AZD-8330]

>  <assayed_system>
BT-474

>  <value_measured>
0

$$$$
>  <compound>
C#Cc1cccc(Nc2ncnc3cc(OCCOC)c(OCCOC)cc23)c1 [Erlotinib]

>  <assayed_system>
BT-474

>  <value_measured>
3.9

$$$$
>  <compound>
CO[C@H]1C[C@@H]2CC[C@@H](C)[C@@](O)(O2)C(=O)C(=O)N2CCCC[C@H]2C(=O)O[C@H]([C@H](C)C[C@@H]2CC[C@@H](OC(=O)C(C)(CO)CO)[C@H](OC)C2)CC(=O)[C@H](C)/C=C(\C)[C@@H](O)[C@@H](OC)C(=O)[C@H](C)C[C@H](C)/C=C/C=C/C=C/1C [Temsirolimus]

>  <assayed_system>
BT-474

>  <value_measured>
9.8

$$$$

The compound O=C(NC[C@H](O)CO)c1ccncc1Nc1ccc(I)cc1F [Pimasertib] showed drug sensitivity score equal to 0.4

The compound COc1cc2ncnc(Nc3ccc(F)c(Cl)c3)c2cc1OCCCN1CCOCC1 [Gefitinib] showed drug sensitivity score equal to 10.8

The compound COc1cc(C(=O)NC2CCN(C)CC2)c(F)cc1Nc1ncc2c(n1)N(C1CCCC1)CC(F)(F)C(=O)N2C [TAK-960] showed drug sensitivity score equal to 0

The compound CC(C)CC(=O)Nc1n[nH]c2c1CN(C(=O)C1CCN(C)CC1)C2(C)C showed drug sensitivity score equal to 1.5

The compound Cn1c(=O)n(-c2ccc(C(C)(C)C#N)cc2)c2c3cc(-c4cnc5ccccc5c4)ccc3ncc21 [Dactolisib] showed drug sensitivity score equal to 11

The compound COc1ccc(-c2ccc3ncc4c(c3c2)n(-c2ccc(N3CCNCC3)c(C(F)(F)F)c2)c(=O)n4C)cn1 [NVP-BGT226] showed drug sensitivity score equal to 14.2

The compound O=C(NOCCO)c1ccc2cncn2c1Nc1ccc(I)cc1F [GDC-0623] showed drug sensitivity score equal to 0

The compound CCC1=C[C@@H]2CN(C1)Cc1c([nH]c3ccccc13)[C@@](C(=O)OC)(c1cc3c(cc1OC)N(C)[C@H]1[C@@](O)(C(=O)OC)[C@H](OC(C)=O)[C@]4(CC)C=CCN5CC[C@]31[C@@H]54)C2 [Vinorelbine] showed drug sensitivity score equal to 18.7

The compound CC(=O)NCC(=O)N1[C@@H]2CC[C@H]1c1ccc(Nc3ncc(C(F)(F)F)c(NC4CCC4)n3)cc12 showed drug sensitivity score equal to 4.5

The compound CN[C@@H](C)C(=O)N[C@H]1CN(C(=O)CC(C)C)CC[C@H]2CC[C@@H](C(=O)NC(c3ccccc3)c3ccccc3)N2C1=O [AT-406] showed drug sensitivity score equal to 0

The compound CO[C@H]1C[C@@H]2CC[C@@H](C)[C@@](O)(O2)C(=O)C(=O)N2CCCC[C@H]2C(=O)O[C@H]([C@H](C)C[C@@H]2CC[C@@H](OCCO)[C@H](OC)C2)CC(=O)[C@H](C)/C=C(\C)[C@@H](O)[C@@H](OC)C(=O)[C@H](C)C[C@H](C)/C=C/C=C/C=C/1C [Everolimus] showed drug sensitivity score equal to 5.2

The compound CN(C)C/C=C/C(=O)Nc1cc2c(Nc3ccc(F)c(Cl)c3)ncnc2cc1O[C@H]1CCOC1 [Afatinib] showed drug sensitivity score equal to 16.2

The compound CC(=O)O[C@@]12CO[C@@H]1C[C@H](O)[C@@]1(C)C(=O)[C@H](O)C3=C(C)[C@@H](OC(=O)[C@H](O)[C@@H](NC(=O)OC(C)(C)C)c4ccccc4)C[C@@](O)([C@@H](OC(=O)c4ccccc4)[C@H]21)C3(C)C [Docetaxel] showed drug sensitivity score equal to 20.6

====

tested on: UT-SCC-24A; experiment: drug sensitivity score (DSS), cell viability CellTiter-Glo; higher = more sensitive; extreme values may be limits of the assay; details: 72 h; shRNA: shPPFIA1_2
Readings of drug sensitivity score for the listed molecules
The figure you give is taken to be in DSS; do not add the unit.

>  <structure>
CO[C@H]1C[C@@H]2CC[C@@H](C)[C@@](O)(O2)C(=O)C(=O)N2CCCC[C@H]2C(=O)O[C@H]([C@H](C)C[C@@H]2CC[C@@H](OC(=O)C(C)(CO)CO)[C@H](OC)C2)CC(=O)[C@H](C)/C=C(\C)[C@@H](O)[C@@H](OC)C(=O)[C@H](C)C[C@H](C)/C=C/C=C/C=C/1C

>  <drug sensitivity score [DSS]>
4.1

$$$$

The molecule CC(C)CC(=O)Nc1n[nH]c2c1CN(C(=O)C1CCN(C)CC1)C2(C)C showed drug sensitivity score equal to 8.5

The molecule COc1cc2ncnc(Nc3ccc(F)c(Cl)c3)c2cc1OCCCN1CCOCC1 showed drug sensitivity score equal to 18.4

The molecule C#Cc1cccc(Nc2ncnc3cc(OCCOC)c(OCCOC)cc23)c1 showed drug sensitivity score equal to 14

The molecule CC(=O)Nc1cccc(-n2c(=O)n(C3CC3)c(=O)c3c(Nc4ccc(I)cc4F)n(C)c(=O)c(C)c32)c1 showed drug sensitivity score equal to 18.5

The molecule O=C(NOCCO)c1ccc2cncn2c1Nc1ccc(I)cc1F showed drug sensitivity score equal to 0

The molecule Cc1cc(C(=O)NOCCO)c(Nc2ccc(I)cc2F)n(C)c1=O showed drug sensitivity score equal to 27.6

The molecule O=C(NC[C@H](O)CO)c1ccncc1Nc1ccc(I)cc1F showed drug sensitivity score equal to 23.4

====

test system: UT-SCC-24A; experiment: drug sensitivity score (DSS), cytotoxicity CellTox Green; higher = more cytotoxic; extreme values may be limits of the assay; conditions: 72 h; shRNA: shScramble
value_type: drug sensitivity score (DSS)
The figure you give is taken to be in DSS; do not add the unit.

>  <structure>
CC(=O)Nc1cccc(-n2c(=O)n(C3CC3)c(=O)c3c(Nc4ccc(I)cc4F)n(C)c(=O)c(C)c32)c1

>  <quantity_unit>
DSS

>  <drug sensitivity score>
7.8

$$$$
>  <structure>
CCOc1ccn(-c2ccc(F)cc2)c(=O)c1C(=O)Nc1ccc(Oc2ccnc(N)c2Cl)c(F)c1

>  <quantity_unit>
DSS

>  <drug sensitivity score>
0

$$$$
>  <structure>
COc1cc2ncnc(Nc3ccc(F)c(Cl)c3)c2cc1OCCCN1CCOCC1

>  <quantity_unit>
DSS

>  <drug sensitivity score>
8.3

$$$$

Fill in: UT-SCC-24A drug sensitivity score for CC(=O)O[C@@]12CO[C@@H]1C[C@H](O)[C@@]1(C)C(=O)[C@H](O)C3=C(C)[C@@H](OC(=O)[C@H](O)[C@@H](NC(=O)OC(C)(C)C)c4ccccc4)C[C@@](O)([C@@H](OC(=O)c4ccccc4)[C@H]21)C3(C)C = 20.1

Fill in: UT-SCC-24A drug sensitivity score for O=C(NOCCO)c1ccc2cncn2c1Nc1ccc(I)cc1F = 0.8

Fill in: UT-SCC-24A drug sensitivity score for Cc1cc([C@@H](C)Nc2ccccc2C(=O)O)c2nc(N3CCOCC3)cc(=O)n2c1 = 0.8

Fill in: UT-SCC-24A drug sensitivity score for O=C(Nc1ccc2[nH]nc(-c3ccncc3)c2c1)[C@@H]1CCN(CC(=O)N2CCN(c3ccc(-c4ncccn4)cc3)CC2)C1 = 11.6

Fill in: UT-SCC-24A drug sensitivity score for C[C@@H]1COC(Nc2ccc3ncnc(Nc4ccc(OCc5nccs5)c(Cl)c4)c3c2)=N1 = 4

Fill in: UT-SCC-24A drug sensitivity score for O=C(NC[C@H](O)CO)c1ccncc1Nc1ccc(I)cc1F = 15.6

Fill in: UT-SCC-24A drug sensitivity score for CN[C@@H](C)C(=O)N[C@H](C(=O)N1CCC[C@H]1c1nc(C(=O)c2ccc(F)cc2)cs1)C1CCCCC1 = 8.1

Fill in: UT-SCC-24A drug sensitivity score for COc1ccc(-c2ccc3ncc4c(c3c2)n(-c2ccc(N3CCNCC3)c(C(F)(F)F)c2)c(=O)n4C)cn1 = 7.8

Fill in: UT-SCC-24A drug sensitivity score for CC(C)CC(=O)Nc1n[nH]c2c1CN(C(=O)C1CCN(C)CC1)C2(C)C = 1.2
